study.system: oestrogen receptor (ER) (Homo sapiens, UniProt P03372)
Construct: These MVLN cells express, along with the functional oestrogen receptor (ER), a reporter construct; endogenous in cells
test.description: Anti-oestrogenic action in MVLN cells (inhibition of estradiol-induced luciferase)
assay.setup: inhibition of estradiol-induced luciferase signal, value of Ex. 44 is a mean value, read-out: Antioestrogenic action in vitro: MVLN transactivation antagonism IC50
property: IC50 (nM)

Below are worked cases with known answers.
# chemical.string, IC50 / nM
records = [
    ("CN(CCCCCCC1=C(c2ccc(F)cc2)CCCc2cc(O)c(F)cc21)CCCCS(=O)(=O)CCCC(F)(F)F", 6),
    ("CN(CCCCCCC1=C(c2ccc(F)c(F)c2)CCCc2cc(O)ccc21)CCCS(=O)(=O)CCCCC(F)(F)F", 18),
    ("CN(CCCCCCC1=C(c2ccc(F)c(F)c2)CCCc2cc(O)ccc21)CCCS(=O)(=O)CCCC(F)(F)C(F)(F)F", 46),
]

[I] O=S(=O)(CCCN(CCO)CCCCCCC1=C(c2ccc(F)cc2)CCCc2cc(O)ccc21)CCC(F)(C(F)(F)F)C(F)(F)F
[II] CN(CCCCCCC1=C(c2cc(F)cc(F)c2)CCCc2cc(O)ccc21)CCCS(=O)(=O)CCC(F)(F)F
[III] O=S(=O)(CCCN(CCO)CCCCCCC1=C(c2ccc(F)cc2)CCCc2c1ccc(O)c2F)CCC(F)(F)F
query: Please list these compounds in decreasing order of IC50. Form field (ranking): labels in requested order.
result: II, I, III
(II: 181 nM, I: 69 nM, III: 24 nM)

* * *

study.system: oestrogen receptor (ER) (Homo sapiens, UniProt P03372)
Construct: These MVLN cells express, along with the functional oestrogen receptor (ER), a reporter construct; endogenous in cells
test.description: Anti-oestrogenic action in MVLN cells (inhibition of estradiol-induced luciferase)
assay.setup: inhibition of estradiol-induced luciferase signal, value of Ex. 44 is a mean value, read-out: Antioestrogenic action in vitro: MVLN transactivation antagonism IC50
Source text: The anti-oestrogenic action of the claimed pharmacological compounds was investigated in so-called MVLN cells in vitro. MVLN cells are derivatives of the hormone-responsive MCF7 breast cancer cells known by a person skilled in the art. These MVLN cells express, along with the functional oestrogen receptor (ER), a reporter construct, which under ER-activation expresses luciferase. […]
pIC50: −log10 of the molar value.
property: pIC50

A selection of reference data follows.
# compound, pIC50
rows = [
    ("O=S(=O)(CCCN(CCCCCCC1=C(c2ccc(F)cc2)CCCc2c1ccc(O)c2F)CC(F)F)CCCC(F)(F)C(F)(F)F", 7.07),
    ("O=S(=O)(CCCN(CCF)CCCCCCC1=C(c2ccc(F)cc2)CCCc2cc(O)ccc21)CCCC(F)(F)C(F)(F)F", 7.55),
    ("CN(CCCCCCC1=C(c2cc(F)ccc2F)CCCc2cc(O)ccc21)CCCCS(=O)(=O)CCCC(F)(F)F", 8.05),
    ("CN(CCCCCCC1=C(c2ccc(F)cc2)CCCc2c1ccc(O)c2F)CCCC[S+]([O-])CCCC(F)(F)C(F)(F)F (stereo not shown)", 8.00),
]

[1] CN(CCCCCCC1=C(c2cc(F)cc(F)c2)CCCc2cc(O)ccc21)CCC[S+]([O-])CCC(F)(F)C(F)(F)F (stereo not shown)
[2] CN(CCCCCCC1=C(c2ccc(F)cc2F)CCCc2cc(O)ccc21)CCCS(=O)(=O)CCCC(F)(F)F
[3] CN(CCCCCC1=C(c2ccc(F)cc2)CCCc2cc(O)ccc21)CCCCS(=O)(=O)CCC(F)(F)F
query: Sort these compounds on pIC50 so the largest reading comes first. The response must list the labels following the requested ordering.
result: 2, 1, 3
(2: 8.30, 1: 8.10, 3: 6.28)

* * *

Quick reference: inhibition in vivo at 0.3 mg/kg of the listed items.
Test system: uterus
test.description: Anti-uterus growth test in the adult rat
assay.setup: sc, 72 h; ovariectomized adult rat, s.c. 3 days with 1.5 μg/kg/day 17β-estradiol; inhibition of uterus growth; value of 44 is a mean of two measurements; read-out: anti-oestrogenic activity in vivo in % at a dose of 0.3 mg/kg (rat)
Answer with a number only, understood to be in %.

query: Query the reported inhibition in vivo at 0.3 mg/kg for uterus; item: CN(CCCCCCC1=C(c2ccc(F)cc2)CCCc2cc(O)ccc21)CCCCS(=O)(=O)CCC(F)(F)F
result: 59

query: I'm curious: which inhibition in vivo at 0.3 mg/kg was measured for CN(CCCCCCC1=C(c2cc(F)cc(F)c2)CCCc2cc(O)ccc21)CCCCS(=O)(=O)CCC(F)(F)F tested on uterus?
result: 30

query: Under uterus: inhibition in vivo at 0.3 mg/kg value of CC(C)(O)CN(CCCCCCC1=C(c2ccc(F)c(F)c2)CCCc2cc(O)ccc21)CCCS(=O)(=O)CCC(F)(F)F ?
result: 10

query: Lab request: please report inhibition in vivo at 0.3 mg/kg under test system uterus for CN(CCCCCCC1=C(c2cc(F)cc(F)c2)CCCc2cc(O)ccc21)CCCCS(=O)(=O)CCCC(F)(F)F
result: 37

query: Item CN(CCCCCCC1=C(c2ccc(F)cc2)CCCc2cc(O)ccc21)CCCS(=O)(=O)CC1CCC(F)(F)CC1 with uterus - inhibition in vivo at 0.3 mg/kg?
result: 56

query: Missing value: inhibition in vivo at 0.3 mg/kg, uterus, entry CN(CCCCCCC1=C(c2ccc(F)cc2)CCCc2cc(O)ccc21)CCCCS(=O)(=O)C1CCC(F)(F)CC1 . Fill in?
result: 52

query: Observed inhibition in vivo at 0.3 mg/kg on uterus for CN(CCCCCCC1=C(c2ccc(F)cc2)CCCc2cc(O)ccc21)CCCS(=O)(=O)CCCC(F)(F)C(F)(F)F , please.
result: 50

* * *

study.system: oestrogen receptor (ER) (Homo sapiens, UniProt P03372)
Construct: These MVLN cells express, along with the functional oestrogen receptor (ER), a reporter construct; endogenous in cells
Sequence (P03372 1-595): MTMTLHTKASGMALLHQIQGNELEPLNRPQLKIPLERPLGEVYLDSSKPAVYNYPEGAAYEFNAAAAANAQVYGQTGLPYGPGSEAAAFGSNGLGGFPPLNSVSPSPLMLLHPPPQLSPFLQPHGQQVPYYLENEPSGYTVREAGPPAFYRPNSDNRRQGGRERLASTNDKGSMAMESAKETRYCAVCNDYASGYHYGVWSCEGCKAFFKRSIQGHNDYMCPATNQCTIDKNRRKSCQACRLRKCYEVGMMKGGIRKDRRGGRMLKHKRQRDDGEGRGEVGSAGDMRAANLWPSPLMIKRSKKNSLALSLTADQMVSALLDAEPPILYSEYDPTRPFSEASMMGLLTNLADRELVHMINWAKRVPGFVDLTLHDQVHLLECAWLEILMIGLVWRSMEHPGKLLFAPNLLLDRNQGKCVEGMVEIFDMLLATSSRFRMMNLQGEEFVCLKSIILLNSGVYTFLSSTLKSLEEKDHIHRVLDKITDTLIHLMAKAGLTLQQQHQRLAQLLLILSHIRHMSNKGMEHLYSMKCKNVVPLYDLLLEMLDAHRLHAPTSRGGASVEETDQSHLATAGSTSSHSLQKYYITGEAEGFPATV
test.description: Anti-oestrogenic action in MVLN cells (inhibition of estradiol-induced luciferase)
assay.setup: inhibition of estradiol-induced luciferase signal, value of Ex. 44 is a mean value, read-out: Antioestrogenic action in vitro: MVLN transactivation antagonism IC50
property: IC50 (nM)

# compound, val
measured = [
    ("COC(=O)CCCN(CCCCCCC1=C(c2ccc(F)cc2)CCCc2cc(O)ccc21)CCCCS(=O)(=O)CCCC(F)(F)F [Example 88]", 24),
    ("CN(CCCCCCC1=C(c2ccc(F)cc2)CCCc2cc(O)ccc21)CCCS(=O)(=O)CCC(F)(C(F)(F)F)C(F)(F)F [Example 110]", 73),
    ("O=S(=O)(CCCN(CCO)CCCCCCC1=C(c2ccc(F)cc2)CCCc2cc(O)ccc21)CCCC(F)(F)F [Example 97]", 7),
    ("CN(CCCCCCC1=C(c2cccc(F)c2)CCCc2cc(O)ccc21)CCCCS(=O)(=O)CCCC(F)(F)C(F)(F)F [Example 124]", 13),
    ("N#CCN(CCCCCCC1=C(c2ccc(F)cc2)CCCc2cc(O)ccc21)CCCS(=O)(=O)CCCCC(F)(F)F [Example 141]", 21),
    ("CN(CCCCCCC1=C(c2cc(F)cc(F)c2)CCCc2cc(O)ccc21)CCCCCS(=O)(=O)CCC(F)(F)F [Example 68]", 106),
    ("CN(CCCCCCC1=C(c2ccc(F)c(F)c2)CCCc2cc(O)ccc21)CCCCS(=O)(=O)CCCC(F)(F)F [Example 45]", 20),
    ("O=S(=O)(CCCN(CCO)CCCCCCC1=C(c2ccc(F)cc2)CCCc2c1ccc(O)c2F)CCCC(F)(F)C(F)(F)F [Example 59]", 16),
    ("O=S(=O)(CCCN(CCF)CCCCCCC1=C(c2ccc(F)cc2)CCCc2c1ccc(O)c2F)CCCC(F)(F)C(F)(F)F [Example 85]", 51),
    ("CN(CCCCCCC1=C(c2cc(F)cc(F)c2)CCCc2cc(O)ccc21)CCCC[S+]([O-])CCCC(F)(F)C(F)(F)F (centres unmarked) [Example 4]", 6),
]

[P] O=C(CN(CCCCCCC1=C(c2ccc(F)cc2)CCCc2cc(O)ccc21)CCCCS(=O)(=O)CCCC(F)(F)F)OCc1ccccc1 [Example 81]
[Q] CN(CCCCCCC1=C(c2ccc(F)cc2)CCCc2cc(O)c(F)cc21)CCCS(=O)(=O)CCCCC(F)(F)F [Example 102]
query: Could you please tell me which of these two has the higher IC50: P or Q ? Give the label under which the chosen entry appears.
result: P
(P: 40 nM, Q: 10 nM)

[a] O=S(=O)(CCCN(CCCCCCC1=C(c2ccc(F)cc2)CCCc2c1ccc(O)c2F)Cc1ccc(F)cc1)CCCC(F)(F)C(F)(F)F [Example 65]
[b] CC(C)(O)CN(CCCCCCC1=C(c2ccc(F)c(F)c2)CCCc2cc(O)ccc21)CCC[S+]([O-])CCC(F)(F)F (centres unmarked) [Example 26]
query: Of a and b , which shows the smaller IC50 value? Give the chosen item's label as your response.
result: b
(b: 28 nM, a: 116 nM)

[1] CN(CCCCCCC1=C(c2cc(F)cc(F)c2)CCCc2cc(O)ccc21)CCCS(=O)(=O)CCCCC(F)(F)F [Example 70]
[2] CN(CCCCCCC1=C(c2ccc(F)cc2F)CCCc2cc(O)ccc21)CCCCCS(=O)(=O)CCC(F)(F)F [Example 133]
[3] COCCCN(CCCCCCC1=C(c2cc(F)cc(F)c2)CCCc2cc(O)ccc21)CCCS(=O)(=O)CCCC(F)(F)C(F)(F)F [Example 16]
query: Hey, quick one: sort these by IC50, low to high? Order the labels as requested and list them.
result: 2, 1, 3
(2: 7 nM, 1: 18 nM, 3: 27 nM)

[P] CN(CCCCCCC1=C(c2ccc(F)cc2)CCCc2cc(O)ccc21)CCCCS(=O)(=O)CCCC(F)(F)C(F)(F)F [Example 114]
[Q] [2H]C([2H])([2H])N(CCCCCCC1=C(c2ccc(F)cc2)CCCc2cc(O)ccc21)CCCS(=O)(=O)CCCCC(F)(F)F [Example 139]
[R] CN(CCCCCCC1=C(c2ccc(F)cc2)CCCc2c1ccc(O)c2F)CCCS(=O)(=O)CCC(F)(F)C(F)(F)F [Example 34]
[S] CN(CCCCCC1=C(c2ccc(F)cc2)CCCc2cc(O)ccc21)CCCCS(=O)(=O)CCCC(F)(F)F [Example 49]
query: # rank by IC50, ascending (min first) Put the labels in the requested order and list them out.
result: Q, P, R, S
(Q: 7 nM, P: 10 nM, R: 27 nM, S: 181 nM)

[P] CN(CCCCCCC1=C(c2ccc(F)cc2F)CCCc2cc(O)ccc21)CCCS(=O)(=O)CCCCC(F)(F)F [Example 129]
[Q] COC(=O)CN(CCCCCCC1=C(c2ccc(F)cc2)CCCc2cc(O)ccc21)CCCCS(=O)(=O)CCCC(F)(F)F [Example 82]
query: Which record shows the lower IC50: the first, P , or the second, Q ? To answer, give the label that identifies your chosen option.
result: P
(P: 5 nM, Q: 13 nM)
